target-entity: WT PKCβII catalytic domain (UniProt P05771-2 321-673, primed (phosphorylated) at the three PKC priming sites (T-loop, turn motif, hydrophobic motif))
Sequence (P05771 other isoform, or with tags, fused parts or gaps): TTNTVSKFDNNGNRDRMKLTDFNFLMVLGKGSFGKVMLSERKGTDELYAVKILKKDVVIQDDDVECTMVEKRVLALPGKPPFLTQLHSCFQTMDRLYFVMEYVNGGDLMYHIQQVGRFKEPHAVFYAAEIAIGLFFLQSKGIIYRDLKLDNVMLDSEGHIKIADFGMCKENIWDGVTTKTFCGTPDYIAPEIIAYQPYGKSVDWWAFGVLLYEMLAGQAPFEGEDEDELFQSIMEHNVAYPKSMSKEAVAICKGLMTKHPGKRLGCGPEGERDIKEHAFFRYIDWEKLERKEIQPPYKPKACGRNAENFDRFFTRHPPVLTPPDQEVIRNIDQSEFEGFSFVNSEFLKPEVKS
assay-info: FP; representative curve
FAM = fluorescein label
measure: Kd

For reference, reported Kd for {FAM}-ESTVRFARKGSLRQKNVH-NH2 [Fluorescein-PSS peptide] stands at 39 µM
